I'd appreciate it if you could supply pSTAT3 (MFI) in CD8 T cells at 10 µM values for the items below.
Molecular target: T1, IL10Rα and IL2Rγ on human primary cells (CD8 T cells, CD4 T cells, monocytes) (human) (UniProt Q13651)
T1 sequence (looked up) 1: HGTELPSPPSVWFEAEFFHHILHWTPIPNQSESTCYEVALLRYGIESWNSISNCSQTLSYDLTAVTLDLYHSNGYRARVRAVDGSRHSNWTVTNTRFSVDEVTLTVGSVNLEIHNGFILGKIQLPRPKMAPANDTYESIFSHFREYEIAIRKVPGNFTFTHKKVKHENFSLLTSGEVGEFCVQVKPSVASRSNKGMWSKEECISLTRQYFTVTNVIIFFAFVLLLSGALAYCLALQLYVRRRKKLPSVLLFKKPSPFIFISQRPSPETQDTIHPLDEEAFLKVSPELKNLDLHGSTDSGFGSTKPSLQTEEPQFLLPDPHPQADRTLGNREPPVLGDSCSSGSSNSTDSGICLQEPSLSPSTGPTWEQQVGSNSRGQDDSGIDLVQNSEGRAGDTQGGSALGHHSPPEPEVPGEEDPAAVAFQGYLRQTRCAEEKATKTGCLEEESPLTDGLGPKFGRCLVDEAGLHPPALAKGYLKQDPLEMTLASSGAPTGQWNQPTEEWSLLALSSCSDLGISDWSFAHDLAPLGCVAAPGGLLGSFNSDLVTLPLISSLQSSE
T1 sequence (looked up) 2: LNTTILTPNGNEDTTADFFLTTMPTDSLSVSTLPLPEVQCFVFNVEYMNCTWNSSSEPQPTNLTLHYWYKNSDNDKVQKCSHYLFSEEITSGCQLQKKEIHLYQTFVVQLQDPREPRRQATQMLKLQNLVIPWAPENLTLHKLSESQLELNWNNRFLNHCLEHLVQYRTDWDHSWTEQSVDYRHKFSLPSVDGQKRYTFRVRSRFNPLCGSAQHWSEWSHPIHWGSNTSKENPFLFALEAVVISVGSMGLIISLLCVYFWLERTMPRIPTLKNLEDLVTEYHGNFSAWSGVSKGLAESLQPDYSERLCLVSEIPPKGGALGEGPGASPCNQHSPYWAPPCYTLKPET
Assay: cell-based or functional assay
Field: value (include unit after the number)

For record hIL10Ra_VHH14-hIL2Rg_VHH19, linker GGGS, tag his (bispecific antibody, not shown: small tags and cut ends) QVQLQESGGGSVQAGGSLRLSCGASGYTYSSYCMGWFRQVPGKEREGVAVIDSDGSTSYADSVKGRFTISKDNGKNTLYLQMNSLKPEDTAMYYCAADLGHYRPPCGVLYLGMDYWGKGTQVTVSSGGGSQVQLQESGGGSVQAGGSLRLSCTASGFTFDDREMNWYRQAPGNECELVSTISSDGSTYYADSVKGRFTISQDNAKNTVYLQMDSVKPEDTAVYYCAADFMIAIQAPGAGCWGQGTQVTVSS the listed pSTAT3 (MFI) in CD8 T cells at 10 µM is 7930 MFI

For record hIL10Ra_VHH14-hIL2Rg_VHH19, linker GGSGGS, tag his (bispecific antibody, not shown: small tags and cut ends) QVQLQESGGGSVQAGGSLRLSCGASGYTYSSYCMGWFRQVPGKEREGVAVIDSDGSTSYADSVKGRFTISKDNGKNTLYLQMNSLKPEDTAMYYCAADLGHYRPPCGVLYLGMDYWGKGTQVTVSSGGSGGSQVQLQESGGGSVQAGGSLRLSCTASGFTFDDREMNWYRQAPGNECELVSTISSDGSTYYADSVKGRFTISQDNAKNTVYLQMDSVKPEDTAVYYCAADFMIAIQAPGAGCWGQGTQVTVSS the listed pSTAT3 (MFI) in CD8 T cells at 10 µM is 8300 MFI

For record hIL10Ra_VHH14-hIL2Rg_VHH19, linker …, tag his (bispecific antibody, not shown: small tags and cut ends) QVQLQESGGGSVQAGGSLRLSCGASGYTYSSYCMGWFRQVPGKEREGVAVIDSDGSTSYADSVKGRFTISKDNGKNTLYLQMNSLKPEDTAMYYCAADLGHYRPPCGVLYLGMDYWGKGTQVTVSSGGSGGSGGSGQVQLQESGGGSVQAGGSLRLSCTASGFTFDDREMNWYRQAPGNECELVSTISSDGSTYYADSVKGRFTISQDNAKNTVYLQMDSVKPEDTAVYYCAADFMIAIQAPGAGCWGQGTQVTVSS the listed pSTAT3 (MFI) in CD8 T cells at 10 µM is 7330 MFI

For record hIL10Ra_VHH14-hIL2Rg_VHH19, no linker, tag his (bispecific antibody, not shown: small tags and cut ends) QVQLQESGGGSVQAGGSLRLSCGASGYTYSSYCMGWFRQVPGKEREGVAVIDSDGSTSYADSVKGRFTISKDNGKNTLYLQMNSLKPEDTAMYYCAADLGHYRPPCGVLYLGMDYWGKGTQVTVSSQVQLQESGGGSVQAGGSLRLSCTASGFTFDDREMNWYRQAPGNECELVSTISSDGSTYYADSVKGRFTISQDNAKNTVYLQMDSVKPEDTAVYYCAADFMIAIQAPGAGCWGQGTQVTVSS the listed pSTAT3 (MFI) in CD8 T cells at 10 µM is 7490 MFI

Reference for the values: patent US20250163162A1
